Hello, the source for this data is patent US20230235054A1, in case you need it.

Target: T1, huNectin4-His (human, UniProt Q96NY8 32-349)
T1 construct: Immobilized on the SPR chip; also called humanNectin4; human Nectin4; not shown: His tag
T1 sequence (looked up): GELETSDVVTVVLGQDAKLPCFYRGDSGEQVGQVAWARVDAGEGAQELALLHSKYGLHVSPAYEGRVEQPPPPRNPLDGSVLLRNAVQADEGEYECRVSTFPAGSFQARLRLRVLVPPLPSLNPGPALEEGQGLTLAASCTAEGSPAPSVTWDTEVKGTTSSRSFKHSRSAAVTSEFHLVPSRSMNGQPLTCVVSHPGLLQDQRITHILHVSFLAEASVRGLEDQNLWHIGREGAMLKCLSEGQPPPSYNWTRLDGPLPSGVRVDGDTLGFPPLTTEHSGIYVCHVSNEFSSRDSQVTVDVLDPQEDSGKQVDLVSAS
Experiment: SPR, huNectin4-His immobilized, pH 6.5
pKd: −log10 of the molar value.
READOUT TYPE: pKd

binder="BAP-143-06-24-16 (antibody, V domains shown, Used as a conjugate with a linker payload (CAB ADC)) VH: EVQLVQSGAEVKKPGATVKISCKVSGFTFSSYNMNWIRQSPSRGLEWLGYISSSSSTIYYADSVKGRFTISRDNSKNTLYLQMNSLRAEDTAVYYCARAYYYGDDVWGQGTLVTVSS VL: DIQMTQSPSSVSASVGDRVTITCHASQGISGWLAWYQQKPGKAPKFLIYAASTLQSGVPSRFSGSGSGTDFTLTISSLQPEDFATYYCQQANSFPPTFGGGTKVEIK" readout_type=pKd measured_result=11.31
binder="BAP-143-07-03-12 (antibody, V domains shown, Used as a conjugate with a linker payload (CAB ADC)) VH: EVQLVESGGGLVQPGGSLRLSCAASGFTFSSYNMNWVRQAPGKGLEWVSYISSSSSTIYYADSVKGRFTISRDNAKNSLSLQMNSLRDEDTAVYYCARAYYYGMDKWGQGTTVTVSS VL: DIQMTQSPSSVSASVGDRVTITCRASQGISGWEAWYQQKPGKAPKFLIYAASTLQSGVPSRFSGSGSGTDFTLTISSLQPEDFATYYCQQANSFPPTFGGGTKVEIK" readout_type=pKd measured_result=9.19
